System: EKVX
Test: NCI tumour cell line growth inhibition, 48 h
Activity calls are given as the source filed them. Cut-off read from the data, not from the text of the source: active = GI50 up to about 1.1 µM and inactive = higher.
Measured Property: GI50

Worked cases, answers included:
{"Compound": "COc1cc2c(cc1OC)C1[C@@H](c3ccccc3)OCN1CC2 (some centres not stated)", "Value Measured": "> 100 µM (inactive)"}
{"Compound": "Cc1ncc([N+](=O)[O-])n1CCN=[N+]=[N-]", "Value Measured": "> 100 µM (inactive)"}
{"Compound": "O=C(Nc1ccn(C2CC(I)C(COC(c3ccccc3)(c3ccccc3)c3ccccc3)O2)c(=O)n1)c1ccccc1 (configuration not stated)", "Value Measured": "13.2 µM (inactive)"}
{"Compound": "c1ccc(CSC(SCc2ccccc2)c2ccc3c(c2)OCO3)cc1", "Value Measured": "> 10 µM (inactive)"}
{"Compound": "CCN(CC)CCn1ncc2ccc3c(c(=O)c4cccnc4n3CCN(CC)CC)c21", "Value Measured": "1.29 µM (inactive)"}
{"Compound": "O=C1C=C(OCCCCl)C(=O)c2c(O)ccc(O)c21", "Value Measured": "1.79 µM (inactive)"}
{"Compound": "N#CC(C#N)=Cc1c[nH]c(=O)[nH]c1=O", "Value Measured": "> 100 µM (inactive)"}
{"Compound": "COc1ccc(/C(Cl)=C(/c2ccc(O)cc2)c2ccc(OCCN(C)C)cc2)cc1", "Value Measured": "16.6 µM (inactive)"}

For each of the compounds below, note its GI50.
1. O=C(CCc1ccc(O)cc1)NCCc1ccc(O)cc1
2. C=CCOc1ccc(C2C(C(=O)OCC)C(=O)CC(C)(O)C2C(=O)OCC)cc1OC (configuration not stated)
3. O=C1C/C(=C\c2ccccc2)C(=O)c2ccccc2N1
4. OCC1OC(O)C(/N=C\c2ccc3c(c2)OCO3)C(O)C1O (configuration not stated)
5. CC(=O)/C(=C/n1c(=S)[nH]c2ccccc21)C(=O)Nc1ccccc1C
6. O=C1c2ccccc2CCC1C(O)(C(F)(F)F)C(F)(F)F (configuration not stated)
7. CN(C)Cc1cc(/C=C/C(=O)c2ccc(Br)cc2)cc(CN(C)C)c1O

> 100 µM (inactive)
> 100 µM (inactive)
24.1 µM (inactive)
> 65.3 µM (inactive)
> 100 µM (inactive)
> 100 µM (inactive)
20.2 µM (inactive)

----------
Tested on: NCI-H226
Assay: NCI tumour cell line growth inhibition, 48 h
Activity calls are given as the source filed them. Cut-off read from the data, not from the text of the source: active = GI50 up to about 1.1 µM and inactive = higher.
For each entry below, report its GI50 value.

Quick request: GI50 for each listed item, please.
1. Cn1c(=O)[nH]c2[nH]c3ccccc3c2c1=O
2. CN(C)C(=O)CO/N=C1/C(=C2/C(=O)Nc3ccccc32)Nc2ccccc21
3. Cn1c(=O)c2ccc(-c3ccc(Br)cc3)nc2n(C)c1=O
4. COc1cc2c(cc1OC)C(=O)/C(=C/c1ccc(Cl)cc1)CC2
5. O=Cc1cc2sc(C=O)cc2s1
6. O=c1[nH]cnc2c1nnn2C1C=C(CO)C(O)C1O (configuration not stated)

> 100 µM (inactive)
> 100 µM (inactive)
> 100 µM (inactive)
> 10 µM (inactive)
26.1 µM (inactive)
> 100 µM (inactive)

Entry under review: O=C(O)C1C2C=CC(C2)C1c1ccccc1 (configuration not stated) . Reported GI50?
> 100 µM (inactive)

----------
For each record, write down the corresponding GI50.
Tested on: OVCAR-8
Test: NCI tumour cell line growth inhibition, 48 h
Calls of active or inactive are those of the source. No stated cut-off is given here; in the data, active = GI50 up to about 1.1 µM and inactive = higher.

Before answering, review these 5 worked examples.
{"Compound": "N#CC(C(=O)CCC(=O)Nc1ccc(Cl)c(Cl)c1)c1ccccc1 (stereo unspecified)", "GI50": "> 100 µM (inactive)"}
{"Compound": "NC(=O)/N=C1\\NC(Cc2ccccc2)C(=O)N1Cc1ccccc1 (stereo unspecified)", "GI50": "> 100 µM (inactive)"}
{"Compound": "COc1ccc(C#CC(=O)O)c(OC)c1", "GI50": "> 100 µM (inactive)"}
{"Compound": "Cc1nc2c(o1)/C(=N\\c1ccccc1)c1nc(C)oc1/C2=N/c1ccccc1", "GI50": "15.3 µM (inactive)"}
{"Compound": "COc1ccc(N2C(=O)CSC2c2c[nH]c3ccccc23)cc1 (stereo unspecified)", "GI50": "60 µM (inactive)"}

Hello, I am looking for reported GI50 with OVCAR-8 for CN(C)c1ccc(C2ON=C(c3ccccc3)N2C23CC4CC(CC(C4)C2)C3)cc1 (stereo unspecified) . Could you help?
> 10 µM (inactive)

----------
Kindly supply the reported GI50 values for the records listed here.
Test system: Malme-3M
Test: NCI tumour cell line growth inhibition, 48 h
The source made the active and inactive calls. No stated cut-off is given here; in the data, active = GI50 up to about 1.1 µM and inactive = higher.

Recorded GI50, per entry:
{"Compound": "CN(c1ccccc1)C1C(=O)N(c2ccccc2)C1/C=C/c1ccccc1 (stereo not given)", "Test System": "Malme-3M", "GI50": "> 100 µM (inactive)"}
{"Compound": "COC(C)(C)CCc1[nH]c2ccccc2c1CC(=O)NCCc1cncn1C", "Test System": "Malme-3M", "GI50": "> 100 µM (inactive)"}
{"Compound": "COc1ccc(-c2cc(=O)c3ccc(O)cc3o2)cc1OC", "Test System": "Malme-3M", "GI50": "67.1 µM (inactive)"}
{"Compound": "C=C1C(C(=O)O)C1C(=O)O (stereo not given)", "Test System": "Malme-3M", "GI50": "> 100 µM (inactive)"}
{"Compound": "CCNc1ncnc2sc(SCc3ccccc3)nc12", "Test System": "Malme-3M", "GI50": "> 100 µM (inactive)"}

Give GI50 for all compounds that follow.
1. COc1cc(C)cc2c(-c3c(O)cc(O)c4c3C[C@H](C)N[C@H]4C)cc(-c3cc(-c4c(O)cc(O)c5c4C[C@H](C)N[C@H]5C)c4cc(C)cc(OC)c4c3O)c(O)c12
2. CN(C)Cc1cc(/N=N/c2ccc(Cl)cc2)ccc1O

> 100 µM (inactive)
14 µM (inactive)

----------
System: DMS-114
Test: NCI tumour cell line growth inhibition, 48 h
The source made the active and inactive calls. Rule as the data show it: active = GI50 up to about 1.1 µM and inactive = higher.
Measured Property: GI50

Please supply GI50 for each of the following items, keeping them in order.
1. O=c1c(O)c(-c2ccc(O)c(O)c2)oc2cc(O)cc(O)c12
2. CC(=O)NNc1nc(C)c(C(=O)NNC(=O)C(=O)Nc2nc3ccc([N+](=O)[O-])cc3s2)s1
3. O=C(O)CCCc1ccc(N(CCCl)CCCl)cc1
4. O=C1C=C(Nc2ccccc2C(=O)CC(=O)C(=O)Nc2ccc(Cl)cc2)c2ccccc2C1=O
5. N=C(N)NS(=O)(=O)c1ccc(Nc2c3ccccc3nc3c(C(=O)N4CCN(CCO)CC4)ccc(Cl)c23)cc1

36.5 µM (inactive)
24.4 µM (inactive)
45.1 µM (inactive)
3.64 µM (inactive)
> 100 µM (inactive)

----------
Exercise: state measured GI50 for each of the molecules provided.
Tested on: HCT-15
Give bare numbers, in µM.

Some entries whose results are on file:
{"Molecule": "O=C1OI(C#Cc2ccccc2)c2ccccc21", "Result Unit": "µM", "GI50": 3.18}
{"Molecule": "COCCCNc1c2ccccc2nc2ccccc12", "Result Unit": "µM", "GI50": 1.3}
{"Molecule": "O=C(Nc1ccn(C2CC(I)C(COC(c3ccccc3)(c3ccccc3)c3ccccc3)O2)c(=O)n1)c1ccccc1 (configuration not stated)", "Result Unit": "µM", "GI50": 8.73}
{"Molecule": "O=C(N/N=C\\C(F)(F)F)c1ccncc1", "Result Unit": "µM", "GI50": 26.9}

Please examine the following record next.
Need GI50, item Cc1nnc2sc(Cl)nn12
19.3

----------
Tested on: CCRF-CEM
Test: NCI tumour cell line growth inhibition, 48 h
Calls of active or inactive are those of the source. Cut-off read from the data, not from the text of the source: active = GI50 up to about 1.1 µM and inactive = higher.
One label from this list, please: y = active, n = inactive

{"Compound": "N#Cc1sc2c(c1OC(=O)c1ccc(C(F)(F)F)cc1)c(=O)n(-c1ccccc1)c(=S)n2-c1ccccc1", "Assigned Label": "n"}
{"Compound": "N#Cc1c(N)c2c(c(-c3ccccc3)c1-c1ccccc1)C(=O)N(N)C2=O", "Assigned Label": "n"}
{"Compound": "O=C(Nc1ccc2ccccc2c1)Nn1cnnc1", "Assigned Label": "n"}
{"Compound": "CCCCCCCCC(=O)CCCCCCCCC(=O)O", "Assigned Label": "n"}
{"Compound": "O=C1C(Cl)=C(N2CCN(c3ccccn3)CC2)C(=O)c2c(O)ccc(O)c21", "Assigned Label": "y"}

Would you mind telling me which call this test gave COC(=O)C(=O)C(C(=O)C(=O)Nc1ccc([N+](=O)[O-])cc1C#N)c1nc2ccc([N+](=O)[O-])cc2nc1O (stereo not given) ?
n

Called result for Cn1c(-c2cccs2)cc(-c2cccs2)c1-c1ccsc1
n

Please let me know the test result on file for Oc1ccc(C(c2ccc(O)cc2)c2ccc(O)cc2)cc1 .
n

Recorded test call requested for CCOC(=O)c1c[nH]c2c(Sc3ccccc3)nccc2c1=O
n

Call for entry COc1ccc(OC)c2c(C(=O)O)c(Cc3ccccc3)ccc12 :
n
